Provide the recorded microsomal CLint at 1 uM for the entries that follow.
assay: Metabolic stability in human hepatic microsome; format: in vitro ADME; details: microsomes, pH 7.4; human hepatic microsome, NADPH(+); read-out: CL NADPH(+)
Starred links: 1 amine or outer side, 2 acyl side, 3 side chain; linkers in the order of their positions; H or OH if unused. Positions of bridges follow the written chain, without caps; N, C: chain ends. Non-standard residues stand in square brackets, D forms with d. Residues, ends and D or L forms follow the SMILES beside them. *: point of attachment. NMeF = CN[C@@H](Cc1ccccc1)C(=O)O; NMeβAla = CN(CCC(=O)[*:2])[*:1]; NMeL = CN[C@@H](CC(C)C)C(=O)O; NMeA = CN[C@@H](C)C(=O)O; Piperidide = C1CCN(*)CC1; dNMeA = CN[C@H](C)C(=O)O; Sar = CNCC(=O)O
Answer with a number only, understood to be in µL/min/mg.

IN: Supply measured microsomal CLint at 1 uM of CC(C)C[C@@H]1NC(=O)[C@@H](C)N(C)C(=O)C[C@@H](C(=O)N2CCCCC2)NC(=O)[C@H](CC(C)C)N(C)C(=O)[C@H](Cc2ccccc2)N(C)C(=O)[C@H](CC(C)C)NC(=O)[C@H](Cc2ccccc2)N(C)C(=O)[C@H](C)N(C)C(=O)[C@H]([C@@H](C)O)NC1=O [DP-127] ([dNMeA]LT[NMeA][NMeF]L[NMeF][NMeL]D-Piperidide; lactam N-9) in your reply.
OUT: 194

IN: Query microsomal CLint at 1 uM for CC(C)C[C@H]1C(=O)N(C)[C@@H](Cc2ccccc2)C(=O)NCC(=O)N(C)[C@@H](Cc2ccccc2)C(=O)N(C)[C@@H](C)C(=O)N[C@@H]([C@@H](C)O)C(=O)N[C@H](C(=O)N(C)[C@@H](Cc2ccccc2)C(=O)N(C)[C@@H](Cc2ccccc2)C(=O)N[C@@H](C)C(=O)N2CCCCC2)CC(=O)N(C)CC(=O)N[C@@H](C(C)C)C(=O)N1C [DP-314] ([Sar]V[NMeL][NMeF]G[NMeF][NMeA]TD[NMeF][NMeF]A-Piperidide; lactam N-9)
OUT: 133

IN: Return the recorded microsomal CLint at 1 uM value; entry: CC[C@H](C)[C@@H]1NC(=O)[C@H](CC(C)C)N(C)C(=O)[C@H](Cc2ccccc2)NC(=O)[C@H](CC(C)C)N(C)C(=O)[C@H](CC(C)C)NC(=O)[C@H](Cc2ccccc2)NC(=O)[C@H]([C@@H](C)O)NC(=O)[C@H](C)N(C)C(=O)[C@H](CC(C)C)NC(=O)CCN(C)C(=O)C[C@@H](C(=O)N2CCCCC2)NC1=O [DP-325] ([NMeβAla]L[NMeA]TFL[NMeL]F[NMeL]ID-Piperidide; lactam N-11)
OUT: 99

###

assay: Metabolic stability in mouse hepatic microsome; assay type: in vitro ADME; details: Table 8, mouse
Positions of bridges follow the written chain, without caps; N, C: chain ends. Non-standard residues stand in square brackets, D forms with d. Residues, ends and D or L forms follow the SMILES beside them. ξ: configuration not given here. *: point of attachment. NMeF = CN[C@@H](Cc1ccccc1)C(=O)O; NMeI = CC[C@H](C)[C@H](NC)C(=O)O; NMeL = CN[C@@H](CC(C)C)C(=O)O; NMeA = CN[C@@H](C)C(=O)O; Piperidide = C1CCN(*)CC1; ξC = NC(CS)C(=O)O; Sar = CNCC(=O)O; tBu = CC(C)(C)*
Lab note: compare Hepatic Microsome CLhint Mouse with 60 ul/min/mg Protein, writing Fulfilled if less and Not fulfilled if equal or more.

IN: Please check: Hepatic Microsome CLhint Mouse for CC[C@H](C)[C@H]1C(=O)N[C@H](C(=O)N2CCCCC2)CSCC(=O)N(C)[C@@H](Cc2ccccc2)C(=O)N(C)[C@@H](CC(C)C)C(=O)N[C@@H]([C@@H](C)O)C(=O)N(C)CC(=O)N(C)[C@@H](CC(C)C)C(=O)N[C@@H](COC(C)(C)C)C(=O)N1C [Compound P-103] ({CH2CO}-[NMeF][NMeL]T[Sar][NMeL]S(tBu)[NMeI]C-Piperidide; thioether N-8) , strictly under 60 ul/min/mg Protein or not?
OUT: Not fulfilled

IN: Item CC[C@H](C)[C@H]1C(=O)N[C@H](C(=O)N2CCCCC2)CSCC(=O)N(C)[C@@H](C)C(=O)N(C)[C@@H](Cc2ccccc2)C(=O)N(C)[C@@H](CC(C)C)C(=O)N[C@@H]([C@@H](C)O)C(=O)N(C)CC(=O)N(C)[C@@H](CC(C)C)C(=O)N[C@@H](COC(C)(C)C)C(=O)N1C [Compound P-109] ({CH2CO}-[NMeA][NMeF][NMeL]T[Sar][NMeL]S(tBu)[NMeI]C-Piperidide; thioether N-9) : Hepatic Microsome CLhint Mouse beneath 60 ul/min/mg Protein, strictly?
OUT: Fulfilled

IN: Threshold test, Hepatic Microsome CLhint Mouse < 60 ul/min/mg Protein: CC(C)C[C@H]1C(=O)N[C@@H](COC(C)(C)C)C(=O)N[C@H](C(=O)N2CCCCC2)CSCC(=O)N(C)[C@@H](C)C(=O)N(C)[C@@H](Cc2ccccc2)C(=O)N(C)[C@@H](CC(C)C)C(=O)N[C@@H]([C@@H](C)O)C(=O)N(C)CC(=O)N1C [Compound P-102] ({CH2CO}-[NMeA][NMeF][NMeL]T[Sar][NMeL]S(tBu)C-Piperidide; thioether N-8)
OUT: Fulfilled

IN: Criterion: Hepatic Microsome CLhint Mouse strictly below 60 ul/min/mg Protein. Is it met by CC[C@H](C)[C@H]1C(=O)NC(C(=O)N2CCCCC2)CSCC(=O)N(C)[C@@H](Cc2ccccc2)C(=O)N(C)[C@@H](C)C(=O)N(C)[C@@H](Cc2ccccc2)C(=O)N(C)[C@@H](CC(C)C)C(=O)N[C@@H]([C@@H](C)O)C(=O)N(C)CC(=O)N(C)[C@@H](CC(C)C)C(=O)N[C@@H](COC(C)(C)C)C(=O)N1C (some centres unmarked) [Compound P-112] ({CH2CO}-[NMeF][NMeA][NMeF][NMeL]T[Sar][NMeL]S(tBu)[NMeI][ξC]-Piperidide; thioether N-10) ?
OUT: Fulfilled

IN: API: query returns whether the compound falls strictly under 60 ul/min/mg Protein in Hepatic Microsome CLhint Mouse. Query: CC[C@H](C)[C@H]1C(=O)N[C@H](C(=O)N2CCCCC2)CS(=O)(=O)CC(=O)N(C)[C@@H](C)C(=O)N(C)[C@@H](Cc2ccccc2)C(=O)N(C)[C@@H](CC(C)C)C(=O)N[C@@H]([C@@H](C)O)C(=O)N(C)CC(=O)N(C)[C@@H](CC(C)C)C(=O)N[C@@H](COC(C)(C)C)C(=O)N1C [Compound P-115]
OUT: Fulfilled
